Test: NCI Yeast Anticancer Drug Screen. Data for the cln2 rad14 strain (AID 165);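 also: 0% = growth equal to vehicle treated cultures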
Details: S. cerevisiae cln2 rad14 strain, at 50.0 µM (retest, dose inferred, filed as 5.0), stronger effect = higher value
About 79,000 compounds went through this panel and 15% of them were active in at least one assay; those are over-represented in the sample as a whole. The source made the active and inactive calls. Rule as the data show it: active = growth inhibition above about 70%; inactive = the rest.
experimental-readout: growth inhibition

Problem: Look up growth inhibition: CCCCCCCCCCS(=O)CC(CO)NC(=O)/C=C/c1c(C)[nH]c(=O)[nH]c1=O (configuration not stated)
Result: 89% (active)

Problem: What would you report for OCC(O)C(O)C(O)C(O)C(/C=N/Nc1ccccc1)=N/Nc1ccccc1 (configuration not stated) ?
Result: 82% (active)

Problem: What would you report for Clc1ccc(CNNCc2ccc(Cl)cc2)cc1 ?
Result: 72% (active)

Problem: What would you report for Fc1cccc(NC(=S)SCc2ccc(Cl)c(Cl)c2)c1 ?
Result: 85% (active)

Problem: What would you report for C=C1CC2(CC(c3ccccc3C)OC(c3ccccc3C)C2)OC1=O (configuration not stated) ?
Result: 91% (active)

Problem: What would you report for COC(=O)[C@]1(C)CCC[C@]2(C)c3ccc(C(C)C)cc3CC[C@@H]12 ?
Result: 41% (inactive)

Problem: What would you report for O=C1OC(c2cccnc2)OC(c2ccccc2)=C1C(=O)c1ccccc1 (configuration not stated) ?
Result: 99% (active)

Problem: What would you report for CCc1cc2c(cc1C(C)=O)C(C)(C)CCC2 ?
Result: 97% (active)

Problem: What would you report for CCOP(=O)(OCC)C(C)(CC)NC(=O)C(C(F)(F)F)C(F)(F)F (configuration not stated) ?
Result: 24% (inactive)

Problem: What would you report for CC12CCCCC1C/C(=N/NC(N)=O)CC2 (configuration not stated) ?
Result: -42% (inactive)

Problem: What would you report for CCCCCCCCCCCCCCCC[N+](C)(C)Cc1cnc[nH]1 ?
Result: 99% (active)

Problem: What would you report for Clc1nc(Cl)c(Cl)c(Cl)n1 ?
Result: 92% (active)

Problem: What would you report for Fc1ccc2nc3ccccc3nc2c1 ?
Result: 10% (inactive)

Problem: What would you report for c1ccc(-c2[nH]c3ccccc3c2-c2ccccn2)cc1 ?
Result: 8% (inactive)

Problem: What would you report for O=C1c2cccc(NCCCNCCO)c2C(=O)c2cccc(NCCCNCCO)c21 ?
Result: 39% (inactive)

Problem: What would you report for c1cc2c3c(cccc3c1)-c1cnccc1-2 ?
Result: 97% (active)

Problem: What would you report for CCCCCCCCCCCCCCCCCCOCC(O)CO (configuration not stated) ?
Result: -7% (inactive)

Problem: What would you report for CCCCCCCCCCCCCCCC[N+](C)(C)c1nc(Cl)nc(Cl)n1 ?
Result: 99% (active)

Problem: What would you report for O[Si](c1ccccc1)(c1ccccc1)c1ccccc1.O[Si](c1ccccc1)(c1ccccc1)c1ccccc1.O[Si](c1ccccc1)(c1ccccc1)c1ccccc1.[O]=[V] ?
Result: 31% (inactive)

Problem: What would you report for COC(=O)C1OC(OC(C)=O)C(OC(C)=O)C(OC(C)=O)C1OC(C)=O (configuration not stated) ?
Result: -2% (inactive)

Problem: What would you report for COC(=O)c1ccc(O)c(OC)c1 ?
Result: 2% (inactive)

Problem: What would you report for O=C(O)C1(Cc2ccccc2)Cc2cc3c(cc2C1)CCC3 ?
Result: 2% (inactive)

Problem: What would you report for CCCCCCCCCCCCCCCCCC(=O)OC(Cc1ccccc1)C(=O)O (configuration not stated) ?
Result: -9% (inactive)

Problem: What would you report for CC(NC(=O)C(N)Cc1ccccc1)C(=O)NC1C(CO)OC(n2cnc3c(N)ncnc32)C1O (configuration not stated) ?
Result: -6% (inactive)

Problem: What would you report for CC1=CC(C)=Nc2ccc(Cl)cc2N1 ?
Result: 7% (inactive)

Problem: What would you report for O=C(CON1C(=O)c2ccccc2C1=O)c1ccccc1 ?
Result: -8% (inactive)

Problem: What would you report for CCCCCCCN ?
Result: 52% (inactive)

Problem: What would you report for COC1OC2COC(c3ccccc3)OC2C(O)C1OS(=O)(=O)c1ccc(C)cc1 (configuration not stated) ?
Result: -8% (inactive)

Problem: What would you report for CCOc1ccc(N/N=C(\CCC(=O)O)C(=O)O)cc1 ?
Result: 94% (active)

Problem: What would you report for NC(C/[N+]([O-])=N/O)C(=O)O (configuration not stated) ?
Result: -28% (inactive)

Problem: What would you report for C=CCN(CC=C)C(CC(=O)C(C)(C)C)=NCC ?
Result: 1% (inactive)

Problem: What would you report for O=C(CCC(=O)OCCOc1ccccc1)OCCOc1ccccc1 ?
Result: 20% (inactive)

Problem: What would you report for Fc1cccc(CSC(=S)Nc2ccc(F)c(F)c2)c1 ?
Result: 91% (active)

Problem: What would you report for Cc1ccc(S(=O)(=O)NC2CCCCCCC2)cc1 ?
Result: 46% (inactive)

Problem: What would you report for O=[N+]([O-])c1ccc2ccccc2c1O ?
Result: 98% (active)

Problem: What would you report for CC(C)CCC[C@@H](C)[C@H]1CC[C@H]2[C@@H]3CC=C4N5CCCN=C5CC[C@]4(C)[C@H]3CC[C@]12C ?
Result: 54% (inactive)

Problem: What would you report for O=C(O)c1ccc(C(c2ccccc2)c2ccccc2)cc1 ?
Result: 99% (active)

Problem: What would you report for Nc1c(C(=O)O)ccc(C(=O)O)c1C(=O)O ?
Result: -60% (inactive)

Problem: What would you report for CCSC1=C(C)C(=O)c2ccccc2C1=O ?
Result: 34% (inactive)

Problem: What would you report for Nc1ncnc2c1ncn2CCCl ?
Result: 5% (inactive)

Problem: What would you report for CC(=O)c1ccc2ccc3ccc(O)cc3c2c1 ?
Result: 97% (active)

Problem: What would you report for Cc1c2cc[n+](C)cc2c(C)c2c1[nH]c1ccccc12 ?
Result: 32% (inactive)

Problem: What would you report for COC(=O)C(=O)C(C(=O)C(c1ccccc1)c1ccccc1)c1nc2n(c1O)/C(=N/C(=O)Nc1ccc(Cl)cc1)N=N2 (configuration not stated) ?
Result: 30% (inactive)

Problem: What would you report for COc1ccc(Oc2ccccc2N)cc1 ?
Result: 95% (active)

Problem: What would you report for O=C(Nc1cc(-c2ccccc2)[nH]n1)c1ccccc1F ?
Result: 54% (inactive)

Problem: What would you report for O=C1CCC(c2ccccc2)(C2(c3ccccc3)CCC(=O)O2)O1 (configuration not stated) ?
Result: 52% (inactive)

Problem: What would you report for C/C(=N\O)c1cc(Br)cc([N+](=O)[O-])c1O ?
Result: 11% (inactive)

====

Assay: NCI Yeast Anticancer Drug Screen. Data for the mlh1 rad18 strain (AID 175)
Details: S. cerevisiae mlh1 rad18 strain growth inhibition; at 50.0 µM; stronger effect = higher value
Compounds without any hit were thinned out: in the full panel of roughly 79,000, 15% have a hit. Active and inactive are the calls of the source. No stated cut-off is given here; in the data, active means growth inhibition above about 70%; inactive means the rest.
Assign growth inhibition to each entry below.

Problem: Look up growth inhibition: OCC(O)C(O)C(O)C(O)CO (centres undefined) (tested in a mixture with another compound)
Result: 13.2% (inactive) [middle of 6 runs]

Problem: What would you report for O=C(O)C1(Cc2ccccc2)Cc2cc3c(cc2C1)CCC3 ?
Result: 84.8% (active)

Problem: What would you report for CC(=O)Nc1nc([N+](=O)[O-])c(C(C)C)s1 ?
Result: 18.2% (inactive)

Problem: What would you report for [N-]=[N+]=NC(=O)Nc1cccc(C(F)(F)F)c1 ?
Result: 98.8% (active)

Problem: What would you report for CCOC(=O)C(CN)(c1ccccc1)c1ccccc1 ?
Result: 17.1% (inactive)

Problem: What would you report for CN1CCN(CCCN2c3ccccc3Sc3ccc(C(F)(F)F)cc32)CC1 ?
Result: 99.6% (active)

Problem: What would you report for C=C1C(=O)OC2CC(C)C3C4OC4C(O)C3(C)C(O)C12 (centres undefined) ?
Result: 63.6% (inactive)

Problem: What would you report for CCOC(CN=c1nc(N(C)C)ss1)OCC ?
Result: -15.3% (inactive)

Problem: What would you report for CCOC(=O)C1=C(C(=O)c2ccc(OC)cc2)C(c2c(Cl)cccc2Cl)C(C(=O)c2ccc(OC)cc2)=C(C(=O)OCC)N1 ?
Result: 81.8% (active)

Problem: What would you report for O=S(O)CCCCSSCC(O)C(O)CSSCCCCS(=O)O (centres undefined) ?
Result: 73% (active)

Problem: What would you report for CC(=O)OC(OC(C)=O)c1c2ccccc2cc2ccccc12 ?
Result: 85.7% (active)

Problem: What would you report for CCCC(C)NCCOC(=O)C(c1ccccc1)C1CCCCC1 (centres undefined) ?
Result: 73.2% (active)

Problem: What would you report for CC(CCc1nc2ccccc2s1)(c1ccc(O)cc1)c1ccc(O)cc1 ?
Result: 99.2% (active)

Problem: What would you report for COC(=O)c1ccc(O)c(OC)c1 ?
Result: 9.5% (inactive)
